Cited source: PubChem BioAssay (NCI)

# System: BT-549 breast
# assayOverview: NCI-60 one-dose screen, 48 h (100 = growth as untreated, 0 = no growth, -100 = all killed)
# studyConditions: 10 µM unless noted
# Method: Growth inhibition of the BT-549 human tumor cell line is measured as a screen for anti-cancer activity. Cells are grown in 96 well plates and exposed to the test compound for 48 hours. Compounds are tested at a single concentration, which is 10^-5 M for most compounds. The reported endpoint is percent growth (GI% or GIPRCNT), where numbers from 0 - 100% represent growth inhibition, and numbers from -100% - 0 represent cell death. For example, a value of 40 represents 60% growth inhibition. […]
The panel holds about 83,000 compounds, 20% with a hit somewhere; the sample as a whole holds those more often.
The threshold is 60%. Values of growth beneath it are tagged label 1; values meeting or exceeding it are tagged label 0.

compound	categoryLabel
Cc1nn(-c2ccc(Cl)cc2)c(=O)n1CCOc1ccccc1Cl	label 0
COc1cc(Br)c(OC)cc1Br	label 0
Cc1cnc(NC(=O)C(Cc2ccccc2)NC(=O)c2ccccc2)s1 (stereo unspecified)	label 0
COc1cc(-c2nc(-c3nc4ccccc4[nH]3)cc3c2[nH]c2ccccc23)cc(OC)c1OC	label 1
CCN(CC)CCC(=O)c1cccc2ccccc12	label 0

###

Measured growth of individual entries
# Tested on: OVCAR-5 ovarian
# assayOverview: NCI-60 one-dose screen, 48 h (100 = growth as untreated, 0 = no growth, -100 = all killed)
# studyConditions: 10 µM unless noted
The panel holds about 83,000 compounds, 20% with a hit somewhere; the sample as a whole holds those more often.

compound	growth, %
COC1=CC(c2ccc[nH]2)=N/C1=C\c1[nH]c(C)c(CCCn2cc(CCCCCCCCC[C@@H]3Cc4cc(O)ccc4C4CC[C@]5(C)[C@@H](O)CC[C@H]5C43)nn2)c1C (stereo partly specified)	32
COc1ccc(/C=C2\C(=O)N(C(=O)c3csc(NC(C)=O)n3)N=C2C)cc1	110
COc1ccc(/C=C/C(=O)OCC(=O)NNC(=O)c2ccccc2)cc1OC	113
COc1ccc(/C=C2\Oc3cc(OCCN4CCCC4)ccc3C2=O)c(OC)c1	90.3
O=c1oc2cc(OS(=O)(=O)c3ccccc3)c(Cl)cc2c2c1CCCCCC2	90.1
CCC(=O)Oc1cc(/C=C/C(=O)O[C@H]2C[C@H]3CN4CCc5c([nH]c6cc(OC)ccc56)[C@@H]4C[C@@H]3[C@@H](C(=O)OC)[C@@H]2OC)ccc1OC	87
CCNc1nc(N2CC(=O)Nc3cc(OC)ccc32)c2ccccc2n1	20
CC(C(=O)n1cc(-c2ccccc2)c(-c2ccccc2)c1)c1ccccc1 (stereo unspecified)	106
O=C1N=C(c2c(-c3[nH]c(=O)c4ccc(Br)cc4c3O)c(O)c3ccccc3c2O)C(=O)c2cc(Br)ccc21	10.4
CCOC(=O)c1ccccc1NC(c1ccccc1)c1ccc2cccnc2c1O (stereo unspecified)	53.7
Cn1c(-c2nonc2NC(=O)c2ccc(F)cc2)nc2ccccc21	117
COc1cc(C2C=C(C)N=C3SC(C)=NN32)cc(OC)c1OC (stereo unspecified)	95.9
O=C1CCC(=O)N1Cc1ccccc1	97.7
Cc1ccc2nc(-c3c(N)n[nH]c3CCCO)[nH]c(=O)c2c1	110
Cc1cccc(NC(=O)c2sc3nc4c(cc3c2N)CCCC4)c1	64.9
COC1=CC(c2ccc[nH]2)=N/C1=C\c1[nH]c(C)c(C(=O)CCCCC(=O)Nc2ccccc2)c1C	64.4
CN(C)c1ncc(-c2ccc(C(F)(F)F)cc2)c(NC2CCCCCC2)n1	87.3
CCCCCCCCCCn1cc[n+](C)c1	45.6
Cc1ccc(C2=NN(c3ccc(S(=O)(=O)NC(=O)NCc4ccccc4)cc3)C(c3ccc(N(C)C)cc3)C2)c(C)c1 (stereo unspecified)	55.1
Cc1ccc(Nc2ncnc3c2sc2ncccc23)cc1	101
COc1ccc(/C=C/C(=O)/C=C/c2cc3ccc(Cl)cc3[nH]c2=O)cc1	108
COc1cccc(NC(=O)c2sc3nc4c(cc3c2N)CCCC4)c1	38.6
Cc1cc(C)c(NC(=O)c2sc3nc4c(cc3c2N)CN(Cc2ccccc2)CC4)c(C)c1	57.1
O=C(CN1CCN(c2cc3c(cc2F)c(=O)c(C(=O)O)cn3C2CC2)CC1)Nc1ccc(C(=O)/C=C/c2ccc(Cl)cc2)cc1	115
COc1ccc(C2NC3=C(CCCC3)C(C#N)(C#N)C2(C#N)C#N)cc1 (stereo unspecified)	97.1
C[C@]12CC[C@@H]3c4cc(O)c(O)cc4CC[C@H]3[C@@H]1CC[C@@H]2O	98
COc1ccc(C(=O)/C=C/c2cccc([N+](=O)[O-])c2)c(OC)c1	41.9
Cc1ccc(S(=O)(=O)N2CCC(C(=O)Nc3ccc(F)cc3F)CC2)cc1	98
COc1cc(/C=C2\CCCC3=C2NC(C)=NC3c2cc(OC)c(OC)c(OC)c2)cc(OC)c1OC (stereo unspecified)	10.8
COc1cc2nc(Cl)nc(NCCO)c2cc1OC	100
O=C(c1ccccc1)C(Cl)C(Cl)c1ccccc1 (stereo unspecified)	113
Cc1cc(Nc2nc(-c3ccc(F)cc3)nc3ccccc23)n[nH]1	70.3
COc1cc(OC)c(C(=O)/C=C/c2ccc(C(F)(F)F)cc2)c(OC)c1	105
CN(C)C1CCC(NC2=CC(=O)C=CC2=O)CC1 (stereo unspecified)	118
O=S(=O)(O)CCl	98.3
O=C(CCl)NCCNc1nccc(Nc2ccc(S(=O)(=O)Nc3ccccn3)cc2)n1	15.7
CCC(C)NCC(=O)O (stereo unspecified)	96
CCOC(=O)CC/C(C)=N\Nc1ccc([N+](=O)[O-])cc1	84.3
CSc1nc(-c2cc3ccccc3o2)cc(-c2ccc(Cl)cc2)c1C#N	93.7
O=C1Nc2ccc(Br)cc2C1=N/C=c1\[nH]c(=O)/c(=C/c2ccc(Cl)cc2)s1	106
CCNC(=O)CCCCC(=O)c1c(C)[nH]c(/C=C2\N=C(c3ccc[nH]3)C=C2OC)c1C	66.3

###

Measured growth of individual entries
# Tested on: NCI-H322M lung
# assayOverview: NCI-60 one-dose screen, 48 h (100 = growth as untreated, 0 = no growth, -100 = all killed)
# studyConditions: 10 µM unless noted
The panel holds about 83,000 compounds, 20% with a hit somewhere; the sample as a whole holds those more often.
metric: growth (%)

molecule	metric	resultValue
C#CCN1C(=O)/C(=c2\sc3n(c2=O)NC2C(N=3)N(CC)C(=O)N2CC)c2ccccc21 (stereo not given)	growth	95.8
C=C1C(=O)O[C@H]2[C@H]1CC/C(COC(=O)NCCc1ccc(Br)cc1)=C\CC[C@@]1(C)O[C@@H]21	growth	85.4
C=CCn1c(C)nc2ccc(Nc3nc(Nc4ccc(F)cc4)nc4ccccc34)cc21	growth	85.5
CCc1cccc(C)c1NC(=O)c1sc2nc3c(cc2c1N)C(=O)CCC3	growth	51.3
COc1ncc(-c2ccc3ncnc(Nc4cccc(Cl)c4)c3c2)cc1NS(=O)(=O)CCN1CCOCC1	growth	-17.1
CN1CCN(CCCOc2ccc3nc(Nc4ccc(C(F)(F)F)c(Cl)c4)ccc3c2)CC1	growth	-5.95
FC(F)(F)c1cccc(-n2nnc3cnc(Nc4ccc(N5CCCCC5)cc4)nc32)c1	growth	90.7
CCCCCCCCCCCCCCCCCCOc1cccc(CCOP(=O)(O)OCC[N+](C)(C)C)c1	growth	105
CCCC(C(=O)OCC)C(C)OC(=O)OCC (stereo not given)	growth	100
Cc1ccc(S(=O)(=O)OCC(=O)Nc2ccc(C(=O)O)c(O)c2)cc1	growth	104
CC1CCN(C(=O)CSc2nc3sc4c(c3c(=O)[nH]2)CCCC4)CC1	growth	104
COc1ccc(C2NC3=C(CCCC3)C(C#N)(C#N)C2(C#N)C#N)cc1 (stereo not given)	growth	109
CCN(C(=O)c1cc2ccccc2[nH]1)[C@H]1CCC[C@@H](NCc2ccc(OC)cc2)C1	growth	76.1
Cn1c(-c2nonc2NC(=O)c2ccc(F)cc2)nc2ccccc21	growth	102
COc1ncc(-c2ccc3ncnc(Nc4cccc(Cl)c4)c3c2)cc1NS(=O)(=O)C1CC1	growth	-5.8
COc1ccc(OC)c(NC(=O)c2cc(S(=O)(=O)N3CCc4ccccc43)ccc2OC)c1	growth	109
CN(C)c1nc(N)c(N=O)c(N)n1	growth	111
COc1ccc(-c2nc3sccn3c2-c2ccnc(NCCNS(=O)(=O)c3ccc(C(F)(F)F)cc3)n2)cc1	growth	37.1
CCCS(=O)(=O)c1nc(NC2CC2)cc(-c2ccc3c(ccn3C3CC(C)(C)NC(C)(C)C3)c2)n1	growth	32.5
COC1=CC(c2ccc[nH]2)=N/C1=C\c1[nH]c(C)c(C(=O)CCCCC(=O)NCc2ccccc2)c1C	growth	77

###

# Test system: MCF7 breast
# assayOverview: NCI-60 one-dose screen, 48 h (100 = growth as untreated, 0 = no growth, -100 = all killed)
# studyConditions: 10 µM unless noted
This is part of a sample that, as a whole, favours compounds with a hit. Of some 83,000 tested, about 20% had one in any assay.
metric: growth (%)

compound	metric	unitOfMeasurement	resultValue
Cc1ccc2nc(-c3c(CCCO)noc3N)[nH]c(=O)c2c1	growth	%	88.7
C=C1C(=O)O[C@H]2[C@H]1CC/C(COC(=O)NCCc1ccc(OC)cc1)=C\CC[C@@]1(C)O[C@@H]21	growth	%	2.77
CC[C@H](C)[C@@H]1NC(=O)[C@H]([C@@H](C)O)NC(=O)C(Cc2ccccc2)NC(=O)[C@@H]2CCCN2C(=O)C(C(C)C)NC(=O)C(Cc2ccccc2)NC(=O)CNC(=O)[C@@H]2CCCN2C1=O (stereo not given in full)	growth	%	67.4
O=C(c1c[nH]c2ccccc12)C(Sc1nc2ccccc2c(=O)[nH]1)c1ccccc1 (stereo not given)	growth	%	101
NS(=O)(=O)c1ccc(NCC(=O)Nc2ccc(-c3nc4ccccc4s3)cc2)cc1	growth	%	27.6
